ASSAY SYSTEM: Prostaglandin G/H synthase 1 (Homo sapiens)
Sequence (P23219 whole entry): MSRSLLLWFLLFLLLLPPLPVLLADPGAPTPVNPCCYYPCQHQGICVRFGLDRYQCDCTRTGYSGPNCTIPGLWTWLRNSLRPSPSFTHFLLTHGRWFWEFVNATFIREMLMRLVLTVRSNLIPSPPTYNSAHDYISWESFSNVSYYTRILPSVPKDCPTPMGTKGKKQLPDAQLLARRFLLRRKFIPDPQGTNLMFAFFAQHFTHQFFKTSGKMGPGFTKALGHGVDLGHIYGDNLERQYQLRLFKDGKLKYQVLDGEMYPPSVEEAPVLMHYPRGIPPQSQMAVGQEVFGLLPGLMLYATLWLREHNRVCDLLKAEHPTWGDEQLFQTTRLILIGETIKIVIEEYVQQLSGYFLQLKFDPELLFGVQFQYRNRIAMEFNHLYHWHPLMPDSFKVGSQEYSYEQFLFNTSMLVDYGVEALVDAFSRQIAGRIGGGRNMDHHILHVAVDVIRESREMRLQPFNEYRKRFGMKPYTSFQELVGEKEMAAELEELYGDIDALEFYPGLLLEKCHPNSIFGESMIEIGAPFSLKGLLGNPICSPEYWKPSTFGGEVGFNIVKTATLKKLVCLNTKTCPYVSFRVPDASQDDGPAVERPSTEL
Format: functional
Give measured AC50 for each item. Keep answers brief.

Exercise: Data request, read-out AC50, for NS(=O)(=O)c1cc2c(cc1Cl)NC(CC1CCCC1)NS2(=O)=O (stereo not drawn) [CYCLOPENTHIAZIDE]
Solution: > 30 µM

Exercise: Another: CCC1(c2cccc(O)c2)CCCCN(C)C1 (stereo not drawn)
Solution: > 3 µM

Exercise: Another: Sc1ncnc2nc[nH]c12 [MERCAPTOPURINE ANHYDROUS]
Solution: > 30 µM

Exercise: Another: `C#C[C@]1(O)CC[C@H]2[C@@H]3CCC4=CC(=O)CC[C@@H]4[C@H]3CC[C@@]21CC`
Solution: > 30 µM

Exercise: Another: `CCOc1ccc(/C=C2\NCCc3cc(OCC)c(OCC)cc32)cc1OCC`
Solution: > 10 µM

Exercise: Another: `CCCCN(CCCC)CCCOC(=O)c1ccc(N)cc1`
Solution: > 30 µM

Exercise: Another: `C(=N\NC1=NCCN1)/c1c2ccccc2c(/C=N/NC2=NCCN2)c2ccccc12`
Solution: > 30 µM

Exercise: Another: `Nc1nc(N)c2nc(-c3ccccc3)c(N)nc2n1`
Solution: > 30 µM

Exercise: Another: `Nc1ccc(/N=N/c2ccccc2)c(N)n1`
Solution: 24.9 µM

Exercise: Another: `CCO/N=C(\C(=O)N[C@@H]1C(=O)N2C(C(=O)[O-])=C(Sc3nc(-c4cc[n+](C)cc4)cs3)CS[C@H]12)c1nsc(N)n1`
Solution: > 30 µM

Exercise: Another: `CCO[C@@H](Cc1ccc(OCCn2c(C)ccc2-c2ccc(SC)cc2)cc1)C(=O)O`
Solution: > 30 µM

Exercise: Another: `O=C1c2ccccc2C(=O)C1C(=O)C(c1ccccc1)c1ccccc1`
Solution: 15.6 µM

Exercise: Another: C[C@@H]1C[C@H]2[C@@H]3C[C@H](F)C4=CC(=O)C=C[C@]4(C)[C@@]3(F)[C@@H](O)C[C@]2(C)[C@@]1(O)C(=O)COC(=O)C(C)(C)C [FLUMETHASONE PIVALATE]
Solution: > 30 µM

Exercise: Another: CC(N/C(=N\C#N)Nc1ccncc1)C(C)(C)C (stereo not drawn) [PINACIDIL ANHYDROUS]
Solution: > 30 µM

Exercise: Another: `CC(C)OC(=O)[C@H](C)N[P@](=O)(OC[C@H]1O[C@@H](n2ccc(=O)[nH]c2=O)[C@](C)(F)[C@@H]1O)Oc1ccccc1`
Solution: > 30 µM

Exercise: Another: `NC(=O)c1cccc2cn(-c3ccc([C@@H]4CCCNC4)cc3)nc12`
Solution: > 30 µM

Exercise: Another: `COc1cc2c(cc1OC)[C@H]1C[C@@H](OC(=O)[C@@H](N)C(C)C)[C@H](CC(C)C)CN1CC2`
Solution: 24.1 µM

Exercise: Another: CCCC1C(=O)N2C(N(C)C)=Nc3ccc(C)cc3N2C1=O (stereo not drawn)
Solution: 6.16 µM

Exercise: Another: `O=C(Cn1ccnc1[N+](=O)[O-])NCc1ccccc1`
Solution: > 30 µM

Exercise: Another: O=C(Nc1ccccc1)OCC(CN1CCCCC1)OC(=O)Nc1ccccc1 (stereo not drawn)
Solution: > 30 µM

Exercise: Another: CCOC(=O)C(c1c(O)c2ccccc2oc1=O)c1c(O)c2ccccc2oc1=O [ETHYL BISCOUMACETATE]
Solution: > 30 µM

Exercise: Another: `OCCN1CCN(CCCN2c3ccccc3C=Cc3ccccc32)CC1`
Solution: 27.5 µM

Exercise: Another: `Cc1cc2c(cc1CC(=O)c1sccc1S(=O)(=O)Nc1onc(C)c1Cl)OCO2`
Solution: > 30 µM

Exercise: Another: `Nc1ccc(C(=O)O)cc1`
Solution: 2.18 µM

Exercise: Another: `CC(C)=CCC1C(=O)N(c2ccccc2)N(c2ccccc2)C1=O`
Solution: > 30 µM

Exercise: Another: `CO/N=C(\C(=O)N[C@@H]1C(=O)N2C(C(=O)OCOC(=O)C(C)(C)C)=C(C)CS[C@H]12)c1csc(N)n1`
Solution: > 30 µM

Exercise: Another: `Cc1c(O)cccc1C(=O)N[C@@H](CSc1ccccc1)[C@H](O)CN1C[C@H]2CCCC[C@H]2C[C@H]1C(=O)NC(C)(C)C`
Solution: > 30 µM

Exercise: Another: `CCOC(=O)c1ccc(O)cc1`
Solution: > 1 µM

---

Give measured AC50 for each item. Keep answers brief.
ASSAY SYSTEM: Mu-type opioid receptor (Homo sapiens, UniProt P35372)
Sequence (P35372 whole entry): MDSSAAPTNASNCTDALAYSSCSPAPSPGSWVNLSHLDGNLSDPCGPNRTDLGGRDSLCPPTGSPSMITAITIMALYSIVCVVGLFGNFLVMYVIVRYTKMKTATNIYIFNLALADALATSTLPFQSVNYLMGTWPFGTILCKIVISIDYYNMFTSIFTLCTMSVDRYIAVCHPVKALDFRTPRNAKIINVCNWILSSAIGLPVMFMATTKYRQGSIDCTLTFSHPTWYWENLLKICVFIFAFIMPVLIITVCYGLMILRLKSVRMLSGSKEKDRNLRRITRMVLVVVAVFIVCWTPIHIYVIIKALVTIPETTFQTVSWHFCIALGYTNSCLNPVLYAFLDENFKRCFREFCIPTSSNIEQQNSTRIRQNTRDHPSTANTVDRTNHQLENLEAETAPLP
MEASUREMENT DESCRIPTION: biochemical
Assay type: functional

Exercise: Data request, read-out AC50, for Cc1cccc(C)c1NC(=O)C1CCCCN1C (stereo not drawn) [MEPIVACAINE]
Solution: > 30 µM

Exercise: Another: `C[C@]12CCC(=O)C=C1CC[C@@H]1[C@@H]2CC[C@@]2(C)[C@H]1CC[C@]2(C)O`
Solution: > 30 µM

Exercise: Another: CC(C)C(=O)Nc1ccc([N+](=O)[O-])c(C(F)(F)F)c1 [FLUTAMIDE]
Solution: > 30 µM

---

Form: system (D(3) dopamine receptor (Homo sapiens)), quantity (AC50), values below.

Exercise: Data request, read-out AC50, for CCCC(CCC)C(=O)O[C@H]1C[C@H]2CC[C@@H](C1)[N+]2(C)C [ANISOTROPINE]
Solution: > 30 µM

Exercise: Another: OCCN1CCN(CCCN2c3ccccc3C=Cc3ccccc32)CC1 [OPIPRAMOL]
Solution: 1.32 µM

Exercise: Another: CS(=O)(=O)Nc1cc2occ(NC=O)c(=O)c2cc1Oc1ccccc1 [IGURATIMOD]
Solution: > 30 µM

Exercise: Another: Cc1ccc(-c2nc3ccc(C)cn3c2CC(=O)N(C)C)cc1 [ZOLPIDEM]
Solution: > 30 µM

Exercise: Another: CC(=O)N(CC(O)CO)c1c(I)c(C(=O)NCC(O)CO)c(I)c(C(=O)NCC(O)CO)c1I (stereo not drawn) [IOHEXOL]
Solution: > 30 µM

Exercise: Another: `CCOC(=O)[C@H](CCc1ccccc1)N[C@@H](C)C(=O)N1CCC[C@H]1C(=O)O`
Solution: > 10 µM

Exercise: Another: O=C(O)CCCc1ccccc1 [PHENYLBUTANOIC ACID]
Solution: > 30 µM

Exercise: Another: CC(C)(N)Cc1ccc(Cl)cc1 [CHLORPHENTERMINE]
Solution: > 30 µM

Exercise: Another: C#CCN(C)[C@H](C)Cc1ccccc1 [SELEGILINE]
Solution: > 30 µM

Exercise: Another: CC(C(O)c1ccc(O)cc1)N1CCC(Cc2ccccc2)CC1 (stereo not drawn) [IFENPRODIL]
Solution: 1.2 µM

Exercise: Another: Nc1ccc(/N=N/c2ccccc2)c(N)n1 [PHENAZOPYRIDINE]
Solution: 3.1 µM

Exercise: Another: C#CCN[C@@H]1CCc2ccccc21 [RASAGILINE]
Solution: > 30 µM

Exercise: Another: O=P(O)(O)C(O)(Cc1cccnc1)P(=O)(O)O [RISEDRONIC ACID]
Solution: > 30 µM

Exercise: Another: O=C(Nc1ccccc1)OCC(CN1CCCCC1)OC(=O)Nc1ccccc1 (stereo not drawn) [DIPERODON]
Solution: 1.3 µM

Exercise: Another: COc1ccc2c(c1)c(CC(=O)OCC(=O)O)c(C)n2C(=O)c1ccc(Cl)cc1 [ACEMETACIN]
Solution: > 30 µM

Exercise: Another: CC/C=C\C/C=C\C/C=C\CCCCCCCC(=O)O [LINOLENIC ACID]
Solution: > 30 µM

Exercise: Another: COC(=O)N[C@H](C(=O)N[C@@H](Cc1ccccc1)[C@@H](O)CN(Cc1ccc(-c2ccccn2)cc1)NC(=O)[C@@H](NC(=O)OC)C(C)(C)C)C(C)(C)C [ATAZANAVIR]
Solution: > 30 µM

Exercise: Another: CCCS(=O)(=O)Nc1ccc(F)c(C(=O)c2c[nH]c3ncc(-c4ccc(Cl)cc4)cc23)c1F [VEMURAFENIB]
Solution: > 30 µM

Exercise: Another: CC(=O)OCC(=O)[C@@]12OC3(CCCC3)O[C@@H]1C[C@H]1[C@@H]3CCC4=CC(=O)C=C[C@]4(C)[C@@]3(F)[C@@H](O)C[C@@]12C [AMCINONIDE]
Solution: > 30 µM

Exercise: Another: COc1ccc2c(c1)C(=O)N(CCc1ccc(S(=O)(=O)NC(=O)NC3CCCCC3)cc1)C(=O)C2(C)C [GLIQUIDONE]
Solution: > 30 µM

Exercise: Another: CN(CCCN1c2ccccc2CCc2ccccc21)CC(=O)c1ccc(Cl)cc1 [LOFEPRAMINE]
Solution: 3 µM

Exercise: Another: C#C[C@]1(O)CC[C@H]2[C@@H]3CCC4=CCCC[C@@H]4[C@H]3CC[C@@]21C [LYNESTRENOL]
Solution: > 30 µM

Exercise: Another: O=C(O)c1cc(-c2ccc(F)cc2F)ccc1O [DIFLUNISAL]
Solution: > 30 µM
